target: PRMT5 (Homo sapiens, UniProt O14744); construct: purchased Viva (custom protein); experiment: PRMT5 biochemical IC50 assay with no cofactor; conditions: PRMT5, no cofactor; read-out: No Cofactor/ rel IC50
Sequence (O14744 whole entry): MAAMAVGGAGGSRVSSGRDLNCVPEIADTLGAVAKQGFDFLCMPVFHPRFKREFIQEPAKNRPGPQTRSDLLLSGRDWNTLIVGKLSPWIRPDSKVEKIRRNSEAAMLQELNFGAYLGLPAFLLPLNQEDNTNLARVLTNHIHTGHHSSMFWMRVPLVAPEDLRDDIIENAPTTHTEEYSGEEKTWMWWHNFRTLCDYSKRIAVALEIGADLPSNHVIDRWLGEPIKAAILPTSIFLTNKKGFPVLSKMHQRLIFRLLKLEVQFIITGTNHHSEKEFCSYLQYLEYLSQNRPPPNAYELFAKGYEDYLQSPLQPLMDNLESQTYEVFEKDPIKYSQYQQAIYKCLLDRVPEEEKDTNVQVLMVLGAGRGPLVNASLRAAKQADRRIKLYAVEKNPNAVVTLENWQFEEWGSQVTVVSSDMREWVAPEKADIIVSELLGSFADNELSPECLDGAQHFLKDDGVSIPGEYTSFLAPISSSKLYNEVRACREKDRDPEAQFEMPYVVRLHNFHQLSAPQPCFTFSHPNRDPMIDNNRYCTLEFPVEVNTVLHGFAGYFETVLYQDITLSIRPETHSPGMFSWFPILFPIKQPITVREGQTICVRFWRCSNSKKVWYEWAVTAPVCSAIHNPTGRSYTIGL
Sequence (Q9BQA1 whole entry partner): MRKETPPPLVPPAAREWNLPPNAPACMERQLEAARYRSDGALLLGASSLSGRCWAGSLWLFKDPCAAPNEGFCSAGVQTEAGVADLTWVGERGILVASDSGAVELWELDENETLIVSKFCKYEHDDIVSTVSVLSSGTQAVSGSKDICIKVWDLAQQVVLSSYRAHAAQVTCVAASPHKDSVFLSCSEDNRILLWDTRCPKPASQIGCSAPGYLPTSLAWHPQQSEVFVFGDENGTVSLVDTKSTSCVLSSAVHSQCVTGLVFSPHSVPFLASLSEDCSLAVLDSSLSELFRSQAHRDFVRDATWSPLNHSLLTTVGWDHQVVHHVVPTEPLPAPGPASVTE
pIC50: −log10 of the molar value.
Measurement kind: pIC50

Compound	Target entity	Result
CCc1cc(NC(=O)C(=O)N2C[C@@H](C)CC[C@@H]2c2ccc3sc(CCOC)nc3c2)cnc1N (single isomer, unassigned)	PRMT5 (Homo sapiens, UniProt O14744)	> 7.30
Cc1cc(NC(=O)C(=O)N2C[C@@H](C)[C@@H](OC(C)C)C[C@@H]2c2ccccc2)cnc1N (single isomer, unassigned)	PRMT5 (Homo sapiens, UniProt O14744)	< 6.30

Ask | Can you look up the measured pIC50 of C[C@@H]1CC[C@@H](c2ccc3sc(CCN(C)C)nc3c2)N(C(=O)C(=O)Nc2cncc(C(N)=O)c2)C1 (racemic) [Compound 1355] for me?
Reply | 6.30 to 7.30

Ask | Which value of pIC50 has been reported for "CCc1cc(NC(=O)C(=O)N2C[C@@H](C)CC[C@@H]2c2cccc(N3CCN(C)CC3)c2)cnc1N" in the records?
Reply | > 7.30
